Reference source for all entries: patent US8785457B2

targetEntity: mTOR (Homo sapiens)
Construct: endogenous in cells; host or cells: Jurkat, clone E6-1 (ATCC TIB-152) cell lysate
assayText: mTOR kinobeads assay (competitive binding in Jurkat cell lysate, immunodetection)
conditionParameters: kinobeads assay, Table 4; read-out: Inhibition values (IC50) mTor
Method: The compounds of the present invention as described were tested in the mTOR kinobeads assay as described below. […] After the incubation time the beads with captured proteins were separated from the lysate. Bound proteins were then eluted and the presence of mTOR, PI3K delta (PI3 Kd) and DNA-dependent protein kinase (DNA-PK) was detected and quantified using a specific antibody in a dot blot procedure and the Odyssey infrared detection system. […]
pIC50: −log10 of the molar value.
measureName: pIC50

Find the recorded pIC50 belonging to C[C@H]1COCCN1c1nc(-c2ccc(NC(=O)NC3CC3)cc2)nc2c1CCN(CC(C)(C)C)C2 and report it. 6.00 to 7.00

Any idea what its pIC50 is? The molecule is C[C@@H]1COCCN1c1nc(-c2ccc(NC(=O)NC3CC3)cc2)nc2c1CNC2 > 7.00

Reported pIC50 for CNC(=O)Nc1ccc(-c2nc3c(c(N4CCOC[C@@H]4C)n2)CNC3)cc1 : what is it? > 7.00

What measured pIC50 goes with C[C@H]1COCCN1c1nc(-c2ccc(NC(=O)NCCCO)cc2)nc2c1CN(C)C2 ? > 7.00

Entry CCNC(=O)Nc1ccc(-c2nc3c(c(N4CCOC[C@@H]4C)n2)CN(C(=O)C(C)C)C3)cc1 : reported pIC50 = ? > 7.00

---

targetEntity: PI3 Kbeta (PI3 Kb) (Homo sapiens)
Construct: endogenous in cells; host or cells: cell lysate
Sequence (P42338 whole entry): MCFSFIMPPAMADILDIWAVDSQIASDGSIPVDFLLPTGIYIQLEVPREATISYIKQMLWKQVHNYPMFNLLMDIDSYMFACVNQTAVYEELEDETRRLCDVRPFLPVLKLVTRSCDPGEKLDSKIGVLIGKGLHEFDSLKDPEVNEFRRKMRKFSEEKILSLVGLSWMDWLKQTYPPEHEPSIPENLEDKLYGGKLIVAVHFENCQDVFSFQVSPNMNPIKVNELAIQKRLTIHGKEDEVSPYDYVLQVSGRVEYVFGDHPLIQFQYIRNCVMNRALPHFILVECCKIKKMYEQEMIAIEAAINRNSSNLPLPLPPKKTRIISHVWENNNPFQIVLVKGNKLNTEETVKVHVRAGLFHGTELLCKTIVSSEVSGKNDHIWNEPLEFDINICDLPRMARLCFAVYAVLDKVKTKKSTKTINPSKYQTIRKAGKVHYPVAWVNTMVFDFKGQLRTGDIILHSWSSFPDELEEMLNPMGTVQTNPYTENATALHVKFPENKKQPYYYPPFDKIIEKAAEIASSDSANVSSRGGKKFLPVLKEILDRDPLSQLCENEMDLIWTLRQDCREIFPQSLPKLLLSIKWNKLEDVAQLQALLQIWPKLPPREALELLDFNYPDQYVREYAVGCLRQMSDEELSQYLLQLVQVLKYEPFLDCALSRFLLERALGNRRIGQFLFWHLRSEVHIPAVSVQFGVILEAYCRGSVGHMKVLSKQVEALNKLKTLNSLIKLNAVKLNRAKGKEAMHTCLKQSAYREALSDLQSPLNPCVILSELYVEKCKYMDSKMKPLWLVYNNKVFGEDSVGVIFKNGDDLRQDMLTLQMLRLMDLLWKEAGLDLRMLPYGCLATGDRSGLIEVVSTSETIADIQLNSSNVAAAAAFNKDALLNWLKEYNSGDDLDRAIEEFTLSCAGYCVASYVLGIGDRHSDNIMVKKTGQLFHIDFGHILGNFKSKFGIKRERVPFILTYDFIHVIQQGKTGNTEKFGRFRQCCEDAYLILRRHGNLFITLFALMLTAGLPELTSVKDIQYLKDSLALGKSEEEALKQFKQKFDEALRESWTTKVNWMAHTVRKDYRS
Sequence (P27986 whole entry partner): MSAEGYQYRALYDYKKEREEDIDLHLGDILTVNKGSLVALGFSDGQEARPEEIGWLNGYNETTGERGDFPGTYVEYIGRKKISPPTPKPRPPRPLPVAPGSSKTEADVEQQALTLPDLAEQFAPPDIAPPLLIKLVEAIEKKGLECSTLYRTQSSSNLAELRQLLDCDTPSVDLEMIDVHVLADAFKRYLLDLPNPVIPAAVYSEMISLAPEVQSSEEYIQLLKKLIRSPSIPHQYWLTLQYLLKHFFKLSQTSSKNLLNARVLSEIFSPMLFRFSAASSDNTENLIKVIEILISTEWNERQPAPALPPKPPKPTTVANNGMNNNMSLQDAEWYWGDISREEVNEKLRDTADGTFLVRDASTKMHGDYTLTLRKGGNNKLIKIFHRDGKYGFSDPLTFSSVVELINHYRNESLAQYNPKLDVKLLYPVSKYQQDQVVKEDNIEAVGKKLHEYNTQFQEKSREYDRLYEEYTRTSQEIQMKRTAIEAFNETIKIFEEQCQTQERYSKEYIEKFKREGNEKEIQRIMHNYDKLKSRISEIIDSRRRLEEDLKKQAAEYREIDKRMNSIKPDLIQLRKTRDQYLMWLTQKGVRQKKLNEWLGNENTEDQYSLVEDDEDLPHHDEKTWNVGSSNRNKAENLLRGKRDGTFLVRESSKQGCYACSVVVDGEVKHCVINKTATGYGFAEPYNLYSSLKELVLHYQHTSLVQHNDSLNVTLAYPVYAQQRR
assayText: kinobeads assay, PI3Kbeta
Assay type: binding
conditionParameters: kinobeads assay, Table 6; read-out: Inhibition values (IC50) PI3Kb
measureName: IC50

compound | reportedResult
CCOC(=O)N1Cc2nc(-c3ccc(NC(=O)Nc4cccnc4)cc3)nc(N3CCOC[C@@H]3C)c2C1 [Example 118] | > 10 µM
CCNC(=O)Nc1ccc(-c2nc3c(c(N4CCOCC4)n2)CCNC3)cc1 [Example 82] | > 10 µM
CCOC(=O)N1Cc2nc(-c3ccc(NC(=O)Nc4ccc(CO)cc4)cc3)nc(N3CCOC[C@@H]3C)c2C1 [Example 119] | > 10 µM
C[C@H]1COCCN1c1nc(-c2ccc(NC(=O)Nc3ccc(F)cc3)cc2)nc2c1CN(C)C2 [Example 52] | > 10 µM
CCOC(=O)N1CCc2c(nc(-c3ccc(NC(=O)NC4CC4)cc3)nc2N2CCOC[C@@H]2C)C1 [Example 78] | > 10 µM
C[C@H]1COCCN1c1nc(-c2ccc(NC(=O)NC3CC3)cc2)nc2c1CN(C(=O)CCN1CCCC1=O)C2 [Example 132] | 1 to 10 µM
CCNC(=O)Nc1ccc(-c2nc3c(c(N4CCOCC4)n2)CN(C(=O)NCC)C3)cc1 [Example 79] | > 10 µM

Entry under review: CCNC(=O)Nc1ccc(-c2nc3c(c(N4CCOC[C@@H]4C)n2)CN(C(=O)C2CCNCC2)C3)cc1F [Example 126] . Reported IC50? 1 to 10 µM

---

The compounds listed here are annotated with their IC50.
targetEntity: PI3K delta (PI3 Kd) (Homo sapiens)
Construct: endogenous in cells; host or cells: Jurkat, clone E6-1 (ATCC TIB-152) cell lysate
Sequence (O00329 whole entry): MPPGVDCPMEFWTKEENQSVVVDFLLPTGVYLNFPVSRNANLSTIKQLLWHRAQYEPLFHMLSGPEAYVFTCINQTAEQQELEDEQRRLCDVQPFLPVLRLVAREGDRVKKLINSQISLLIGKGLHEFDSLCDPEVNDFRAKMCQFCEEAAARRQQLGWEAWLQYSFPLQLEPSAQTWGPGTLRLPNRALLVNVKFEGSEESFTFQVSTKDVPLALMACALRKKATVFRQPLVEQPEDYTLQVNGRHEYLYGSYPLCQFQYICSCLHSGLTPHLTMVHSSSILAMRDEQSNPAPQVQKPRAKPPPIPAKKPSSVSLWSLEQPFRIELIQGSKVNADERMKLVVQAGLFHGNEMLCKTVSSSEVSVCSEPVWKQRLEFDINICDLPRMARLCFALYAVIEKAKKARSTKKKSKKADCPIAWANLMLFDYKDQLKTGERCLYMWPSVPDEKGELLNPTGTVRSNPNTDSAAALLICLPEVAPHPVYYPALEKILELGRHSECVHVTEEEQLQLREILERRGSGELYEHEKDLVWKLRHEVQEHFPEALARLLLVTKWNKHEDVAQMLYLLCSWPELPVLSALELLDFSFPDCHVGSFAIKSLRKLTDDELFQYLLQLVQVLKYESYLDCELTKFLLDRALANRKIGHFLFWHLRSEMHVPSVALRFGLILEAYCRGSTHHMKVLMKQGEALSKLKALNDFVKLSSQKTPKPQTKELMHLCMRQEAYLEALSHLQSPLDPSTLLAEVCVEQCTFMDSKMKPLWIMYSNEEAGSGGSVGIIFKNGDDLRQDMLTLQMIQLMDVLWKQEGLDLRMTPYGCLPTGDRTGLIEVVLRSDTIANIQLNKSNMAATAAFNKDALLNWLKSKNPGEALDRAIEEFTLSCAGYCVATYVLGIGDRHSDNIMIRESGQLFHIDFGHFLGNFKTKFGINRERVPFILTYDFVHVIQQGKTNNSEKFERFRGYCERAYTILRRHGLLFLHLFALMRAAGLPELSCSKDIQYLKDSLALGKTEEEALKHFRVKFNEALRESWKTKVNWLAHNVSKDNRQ
Sequence (P27986 whole entry partner): as the sequence (P27986 whole entry partner) above
assayText: kinobeads assay, PI3K delta
Format: binding
conditionParameters: Further Kinobeads Data; read-out: PI3Kd

compound | IC50
CC(=O)N1Cc2nc(-c3ccc(NC(=O)NC4CC4)cc3F)nc(N3CCOCC3)c2C1 [Example 166] | > 10 µM
COC(=O)N1Cc2nc(-c3ccc(NC(=O)NC4CC4)cc3F)nc(N3CCOCC3)c2C1 [Example 173] | > 10 µM
CN1Cc2nc(-c3ccc(NC(=O)NC4CC4)cc3F)nc(N3CCOCC3)c2C1 [Example 159] | > 10 µM
CCNC(=O)Nc1ccc(-c2nc3c(c(N4CCOCC4)n2)CN(C)C3)c(F)c1 [Example 154] | > 10 µM
CC(C)N1Cc2nc(-c3ccc(NC(=O)NC4CC4)cc3F)nc(N3CCOC[C@@H]3C)c2C1 [Example 172] | 1 to 10 µM

Which IC50 is reported for this compound? C[C@@H]1COCCN1c1nc(-c2ccc(NC(=O)NC3CC3)cc2F)nc2c1CN(C=O)C2 [Example 190] > 10 µM

Sample CCOC(=O)N1Cc2nc(-c3ccc(NC(=O)NCCO)cc3F)nc(N3CCOCC3)c2C1 [Example 171] — what was its IC50? > 10 µM

Requested field: IC50. Item: CCOC(=O)N1Cc2nc(-c3ccc(NC(=O)NC4CC4)cc3F)nc(N3CCOC[C@H]3C)c2C1 [Example 179] > 10 µM
